Item-by-item account of TGI
Test system: T-47D breast
assay_summary: NCI tumour cell line growth inhibition, 48 h
Response body: numeric value in µM, unit text excluded.

| molecule | result_value |
| --- | --- |
| CC(C)NCC(O)c1cc(OCc2ccccc2)c(OCc2ccccc2)cc1NC(=O)CCC(=O)O (stereo not given) | 25.7 |

Next:
Write down the reported TGI of "O=C(O)c1cc(-c2ccc3c(O)ccc(O)c3c2)ccc1O" , test system: T-47D breast.
35.3

====

Tested on: NCI-H23 lung
assay_summary: NCI tumour cell line growth inhibition, 48 h
TGI values, listed per item
Please state the figure in µM; there is no need to write the unit.

A selection of reference data follows.
| compound | measured_metric | scale_unit | result_value |
| --- | --- | --- | --- |
| COc1cc(C2c3[nH]c4ccccc4c3[C@@H](Nc3ccc(F)cc3)[C@H]3COC(=O)N23)cc(OC)c1O (stereo not given in full) | TGI | µM | 5.18 |
| Cc1nc2cc(-n3c(-c4ccc(F)cc4)nc4ccccc4c3=O)ccc2n1Cc1ccccc1 | TGI | µM | 37.6 |
| CCN(CC)c1ccc(/C=C2\SC(=O)C(Nc3nnc(-c4cccnc4SCc4ccccc4)o3)C2=O)cc1 (stereo not given) | TGI | µM | 8.62 |
| O=C1C=CC(=O)c2ccc(=O)ccc21 | TGI | µM | 45.5 |

Now look at this entry.
Need TGI of "CN(C)CCNc1ccc(NCCN(C)C)c2c1C(=O)c1ncsc1C2=O" , thanks.
30

The origin of these recorded values is PubChem BioAssay (NCI).
